system: C8166-45 cell line; experiment: MTT Assay (cytotoxicity); assay type: cell-based, human; conditions: C8166-45 cells, five days
// MTT Assay CC30 lookup, one value per entry

The examples below pair each entry with its known result.
CCN1c2ncc(CCO)cc2C(=O)N(C)c2ccc(Cl)nc21	> 256 µM
CCN1c2ncc(CC(=O)c3ccncc3)cc2C(=O)N(C)c2ccc(Cl)nc21	250 µM
CCN1c2ncc(COc3ccc(O)cc3)cc2C(=O)N(C)c2ccc(Cl)nc21	40 µM
CCN1c2ncc(CCc3cc[n+]([O-])cc3)cc2C(=O)N(C)c2ccc(Cl)nc21	> 256 µM
CCN1c2ncc(CS(=O)(=O)c3ccccc3)cc2C(=O)N(C)c2ccc(Cl)nc21	45 µM

The recorded MTT Assay CC30 for CCN1c2ncc(COc3cccc(C(=O)OC)c3)cc2C(=O)N(C)c2ccc(Cl)nc21 is > 60 µM

The recorded MTT Assay CC30 for CCN1c2ncc(OCc3ccccc3)cc2C(=O)N(C)c2ccc(Cl)nc21 is > 60 µM

The recorded MTT Assay CC30 for CCN1c2ncc(CCc3ccccc3)cc2C(=O)N(C)c2ccc(Cl)nc21 is > 60 µM

* * *

// MTT Assay CC30 lookup, one value per entry
tested on: C8166-45 cell line; assay: MTT Assay (cytotoxicity); type: cell-based, human; settings: C8166-45 cells, five days
Numbers only here, please. The scale is µM.

The examples below pair each entry with its known result.
CCN1c2ncc(COc3cccc4[nH]ccc34)cc2C(=O)N(C)c2ccc(Cl)nc21 [Example 114]	30
CCN1c2ncc(CCc3ccnc(C)c3)cc2C(=O)N(C)c2ccc(Cl)nc21 [Example 66]	100
CCN1c2ncc(CCc3ccncc3)cc2C(=O)N(C)c2ccc(Cl)nc21 [Example 3]	70
CCN1c2ncc(COc3ccnc(C(F)(F)F)c3)cc2C(=O)N(C)c2ccc(Cl)nc21 [Example 126]	64
CCN1c2ncc(CCc3cccc(N)c3)cc2C(=O)N(C)c2ccc(Cl)nc21 [Example 22]	60

As a next step, examine the compound that follows.
The recorded MTT Assay CC30 for CCN1c2ncc(COc3cc[n+]([O-])c(C)c3)cc2C(=O)N(C)c2ccc(Cl)nc21 [Example 94] is 200

* * *

tested on: C8166-45 cell line; assay: MTT Assay (cytotoxicity); assay type: cell-based, human; conditions: C8166-45 cells, five days
property-measured: MTT Assay CC30 (µM)
Numbers only here, please. The scale is µM.

The examples below pair each entry with its known result.
CCN1c2ncc(CC(F)c3ccncc3)cc2C(=O)N(C)c2ccc(Cl)nc21 (centres unmarked)	150
CCN1c2ncc(CSc3ncccn3)cc2C(=O)N(C)c2ccc(Cl)nc21	50

As a next step, examine the compound that follows.
The recorded MTT Assay CC30 for CCN1c2ncc(C(C)O)cc2C(=O)N(C)c2ccc(Cl)nc21 (centres unmarked) is 256

* * *

test system: C8166-45 cell line; assay: MTT Assay (cytotoxicity); type: cell-based, human; conditions: C8166-45 cells, five days
// MTT Assay CC30 lookup, one value per entry

CCN1c2ncc(CCl)cc2C(=O)N(C)c2ccc(Cl)nc21	> 256 µM
CCN1c2ncc(COc3ccccc3)cc2C(=O)N(C)c2ccc(Cl)nc21	> 60 µM
CCN1c2ncc(COc3cc[n+]([O-])cc3)cc2C(=O)N(C)c2cccnc21	> 130 µM
CCN1c2ncc(COc3ccncc3)cc2C(=O)N(C)c2ccc(Cl)nc21	> 120 µM
CCN1c2ncc(CC(O)c3ccncc3)cc2C(=O)N(C)c2ccc(Cl)nc21 (stereo not drawn)	150 µM

The recorded MTT Assay CC30 for CCN1c2ncc(CCc3ccnc(C(N)=O)c3)cc2C(=O)N(C)c2ccc(Cl)nc21 is > 128 µM

The recorded MTT Assay CC30 for CCN1c2ncc(COc3ccc(F)cc3)cc2C(=O)N(C)c2ccc(Cl)nc21 is > 60 µM

The recorded MTT Assay CC30 for CCN1c2ncc(COc3cccc(F)c3)cc2C(=O)N(C)c2ccc(Cl)nc21 is > 60 µM

The recorded MTT Assay CC30 for CCN1c2ncc(CCc3ccccc3)cc2C(=O)Nc2c(C)ccnc21 is > 130 µM

The recorded MTT Assay CC30 for CCN1c2ncc(CCc3ccc4ccccc4c3)cc2C(=O)N(C)c2ccc(F)nc21 is 20 µM

* * *

// MTT Assay CC30 lookup, one value per entry
test system: C8166-45 cell line; assay: MTT Assay (cytotoxicity); assay type: cell-based, human; details: C8166-45 cells, five days

The examples below pair each entry with its known result.
CCN1c2ncc(CCc3ccnc(C)c3)cc2C(=O)N(C)c2cccnc21	230 µM
CCN1c2ncc(CSc3ccccc3)cc2C(=O)N(C)c2ccc(Cl)nc21	60 µM
CCN1c2ncc(CCc3ccccc3N)cc2C(=O)N(C)c2cccnc21	> 200 µM
CCN1c2ncc(CN(C)c3ccccc3)cc2C(=O)N(C)c2ccc(Cl)nc21	> 60 µM

As a next step, examine the compound that follows.
The recorded MTT Assay CC30 for CCN1c2ncc(COc3ccncc3)cc2C(=O)N(C)c2ccc(F)nc21 is 160 µM

* * *

tested on: HTLV-IIIB strain of HIV-1 (in C8166-45 cells); experiment: Syncytia (human T-cell culture) Assay; format: cell-based; conditions: Human immunodeficiency virus 1, T-cell; C8166-45 cells, HTLV-IIIB strain, 72 hours; read-out: Syncytia Assay IC50
// IC50 lookup, one value per entry
Numbers only here, please. The scale is nM.

The examples below pair each entry with its known result.
CCN1c2ncc(CSc3ccccc3)cc2C(=O)N(C)c2ccc(Cl)nc21 [Example 117]	5
CCN1c2ncc(CCc3ccncc3)cc2C(=O)N(C)c2cccnc21 [Example 2]	20
CCN1c2ncc(CCc3ccccc3)cc2C(=O)N(C)c2ccc(Cl)nc21 [Example 45]	10
CCN1c2ncc(CCc3ccncc3)cc2C(=O)N(C)c2ccc(Cl)nc21 [Example 3]	10
CCN1c2ncc(CCOc3ccncc3)cc2C(=O)N(C)c2ccc(Cl)nc21 [Example 127]	3

# lookup: CCN1c2ncc(CCOc3cc[n+]([O-])cc3)cc2C(=O)N(C)c2ccc(Cl)nc21 [Example 96] on HTLV-IIIB strain of HIV-1 (in C8166-45 cells), IC50 = 30

* * *

// MTT Assay CC30 lookup, one value per entry
test system: C8166-45 cell line; experiment: MTT Assay (cytotoxicity); assay type: cell-based, human; conditions: C8166-45 cells, five days
Numbers only here, please. The scale is µM.

The examples below pair each entry with its known result.
CCN1c2ncc(COc3cccc(C(N)=O)c3)cc2C(=O)N(C)c2ccc(Cl)nc21	130
CCN1c2ncc(CNc3cccc(N)c3)cc2C(=O)N(C)c2ccc(Cl)nc21	60
CCN1c2ncc(CCc3cccc(NC(N)=O)c3)cc2C(=O)N(C)c2ccc(Cl)nc21	35

As a next step, examine the compound that follows.
The recorded MTT Assay CC30 for CCN1c2ncc(O)cc2C(=O)N(C)c2ccc(Cl)nc21 is 130

* * *

biological target: RT (WT) (Human immunodeficiency virus type 1 group M subtype B); assay: Reverse Transcriptase (RT) Assay, wild type; assay type: biochemical, HIV-1; set-up: Heterodimeric RT was eluted using a descending gradient; made in house; host or cells: E. coli (clone pKRT2, obtained from Yale University); details: read-out: RT (WT) Assay % inh. (1 μM)
property-measured: inhibition at 1 µM (%)
Numbers only here, please. The scale is %.

The examples below pair each entry with its known result.
CCN1c2ncc(/C=C/c3ccncc3)cc2C(=O)N(C)c2cccnc21	32
CCN1c2ncc(CCc3ccncc3)cc2C(=O)N(C)c2ccc(O)nc21	21

As a next step, examine the compound that follows.
The recorded inhibition at 1 µM for CCN1c2ncc(CCc3ccncc3)cc2C(=O)N(C)c2ccc(N)nc21 is 68

* * *

// MTT Assay CC30 lookup, one value per entry
test system: C8166-45 cell line; test: MTT Assay (cytotoxicity); format: cell-based, human; details: C8166-45 cells, five days

CCN1c2ncc(CC(O)c3cc[n+]([O-])cc3)cc2C(=O)N(C)c2ccc(Cl)nc21 (stereo not drawn) [Example 13]	> 128 µM
CCN1c2ncc(CCc3ccncc3)cc2C(=O)N(C)c2ccc(O)nc21 [Example 6]	> 256 µM
CN1C(=O)c2cc(CCc3ccncc3)cnc2N(C2CC2)c2nc(Cl)ccc21 [Example 37]	> 60 µM
CCN1c2ncc(CCOc3cc[n+]([O-])cc3)cc2C(=O)N(C)c2ccc(Cl)nc21 [Example 96]	> 256 µM

The recorded MTT Assay CC30 for CCN1c2ncc(CCc3ccccc3)cc2C(=O)Nc2c1nc(Cl)c(Br)c2C [Example 75] is > 130 µM

The recorded MTT Assay CC30 for CCN1c2ncc(C=O)cc2C(=O)N(C)c2ccc(Cl)nc21 [Example 80] is 65 µM

The recorded MTT Assay CC30 for CCN1c2ncc(CCc3cccc4[nH]ccc34)cc2C(=O)N(C)c2cccnc21 [Example 29] is > 60 µM

The recorded MTT Assay CC30 for CCN1c2ncc(CCc3ccncc3)cc2C(=O)N(C)c2ccc(F)nc21 [Example 38] is 150 to 175 µM

The recorded MTT Assay CC30 for CCN1c2ncc(CCc3ccccc3C)cc2C(=O)N(C)c2cccnc21 [Example 62] is > 130 µM

Data provenance: patent US5705499A
